Reference source: the supplement of paper PMC10567573

Listed next: entries and their corresponding protein stability index.
B1: FBXO3 (parent)
chain: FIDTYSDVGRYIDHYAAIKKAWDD

Variants of: B1
test-summary: protein stability index of a GFP-peptide fusion (GPS, HEK-293T) (PSI 1-6); higher = more stable;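 note: lentivirally expressed fusions sorted by FACS into six bins by GFP to DsRed ratio, PSI derived from sequencing read proportions per bin multiplied by bin number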
experimental-setup: c terminus: a fixed tail appended

I18P
1.96
K20T
1.61
K19P
1.74
I18M
2.16

For the variant H14P , what protein stability index is on record?
2.38

What about D7L ?
1.93

What about A21D ?
3.43

What about G9A ?
1.62

What about A17F ?
3.36

What about K20V ?
1.44

What about D7Q ?
1.53

What about W22C ?
1.95

What about V8L ?
1.92

What about W22V ?
1.61

What about D24A ?
2.83
